# Test system: CLK3 (Homo sapiens)
# Sequence (P49761 whole entry): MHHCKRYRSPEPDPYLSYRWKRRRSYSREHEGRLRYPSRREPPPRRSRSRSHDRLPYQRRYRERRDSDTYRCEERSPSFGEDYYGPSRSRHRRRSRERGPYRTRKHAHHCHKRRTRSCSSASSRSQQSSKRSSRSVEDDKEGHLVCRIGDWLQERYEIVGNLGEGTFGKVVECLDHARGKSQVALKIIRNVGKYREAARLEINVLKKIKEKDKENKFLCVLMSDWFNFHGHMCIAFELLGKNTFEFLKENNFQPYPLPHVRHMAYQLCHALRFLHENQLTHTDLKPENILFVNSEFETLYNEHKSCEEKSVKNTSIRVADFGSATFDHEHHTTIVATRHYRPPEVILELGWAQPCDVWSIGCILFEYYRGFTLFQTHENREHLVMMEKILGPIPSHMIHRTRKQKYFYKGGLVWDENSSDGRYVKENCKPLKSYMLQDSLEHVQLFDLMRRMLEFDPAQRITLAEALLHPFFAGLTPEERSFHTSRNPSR
# Procedure details: In vitro kinase inhibition, ADP-Glo enzyme activity assay
# Type: biochemical
# Cond: read-out: Enzymatic activity (IC50) CLK3
pIC50: −log10 of the molar value.
Experimental endpoint: pIC50

{"columns": ["Structure smiles", "Experimental endpoint", "Measured result"],
 "data": [
  ["CCS(=O)(=O)Nc1cncc(-c2ccc3[nH]nc(-c4nc(=O)c5ccccc5[nH]4)c3c2)c1", "pIC50", "< 7.00"],
  ["O=c1nc(-c2n[nH]c3ccc(-c4cccnc4)cc23)[nH]c2ccccc12", "pIC50", "7.30 to 8.00"],
  ["O=c1nc(-c2n[nH]c3ccc(-c4cncc(CN5CCC(F)(F)C5)c4)cc23)[nH]c2ccccc12", "pIC50", "> 8.00"]
]}

Next, consider the following compound.
Lab book: pIC50 of CC(C)CC(=O)Nc1cncc(-c2ccc3[nH]nc(C4=NCc5ccccc5N4)c3c2)c1 noted as > 8.00
